# assayTarget: T1, ZFP SBS#1214 (synthetic)
# T1 chain: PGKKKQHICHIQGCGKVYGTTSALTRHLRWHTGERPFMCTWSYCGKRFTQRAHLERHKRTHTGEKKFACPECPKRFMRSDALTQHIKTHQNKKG
# protocolNotes: EMSA
# settings: tags: MBP fusion
quantityName: pKd
One number for each entry, as −log10 of the molar value.

Read off the recorded pKd for ATGGGAGTT (dsDNA) DNA 1: ATGGGAGTT DNA 2: AACTCCCAT
9.34
